Assayed system: recombinant human CB1 receptor (Homo sapiens)
Sequence (P21554 whole entry): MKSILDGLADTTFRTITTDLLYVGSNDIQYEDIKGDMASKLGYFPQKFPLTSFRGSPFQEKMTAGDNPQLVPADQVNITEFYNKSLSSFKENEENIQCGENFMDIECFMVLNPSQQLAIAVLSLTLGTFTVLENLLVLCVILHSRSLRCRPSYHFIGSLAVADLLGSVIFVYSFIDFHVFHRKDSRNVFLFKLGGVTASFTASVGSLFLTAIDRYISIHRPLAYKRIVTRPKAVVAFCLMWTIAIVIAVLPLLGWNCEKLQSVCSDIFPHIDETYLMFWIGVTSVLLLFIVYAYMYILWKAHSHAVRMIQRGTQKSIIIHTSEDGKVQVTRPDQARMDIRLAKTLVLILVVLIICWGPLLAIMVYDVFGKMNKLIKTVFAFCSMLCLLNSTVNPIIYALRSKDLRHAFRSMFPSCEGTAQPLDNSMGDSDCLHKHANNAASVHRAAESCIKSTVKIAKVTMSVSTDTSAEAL
Method: Cannabinoid Receptor-1 (CB1) Binding (IC50) Assay
Cond: [3H]CP-55940 0.6 nM, CHO cell membranes
What IC50 was measured for each of the following?
Your answer should be a plain number; it is taken to be in nM.

Q) Any idea what its IC50 is? The compound is CC(C)(F)[C@H](c1cc(F)cc(C#N)c1)C1CN([C@@H](c2ccc(C#N)cc2)c2cccc(C#N)c2)C1
A) 3

Q) Then CC(NC(=O)C(C)(C)Oc1cc(C(F)(F)F)ncn1)C(Cc1ccc(Cl)cc1)c1cccc(C#N)c1 (stereo not drawn) ?
A) 0.66

Q) Then CC(NC(=O)C(C)(C)Oc1ccccn1)C(Cc1ccc(Cl)cc1)c1cc(F)cc(F)c1 (single isomer, unassigned) ?
A) 0.45

Q) Then CC(NC(=O)C(C)(C)Oc1ccc(Cl)cn1)C(Cc1ccc(Cl)cc1)c1ccsc1 (stereo not drawn) ?
A) 7.28

Q) Then CC(NC(=O)C(C)(C)Oc1ccc(C(F)(F)F)cn1)C(CC1CCCC1)c1cccc(C#N)c1 (single isomer, unassigned) ?
A) 0.33

Q) Then CC(C)CC(c1cccc(C#N)c1)C(C)NC(=O)C(C)(C)Oc1ccc(C(F)(F)F)cn1 (single isomer, unassigned) ?
A) 1.39

Q) Then CC(NC(=O)C(C)(C)Oc1ccc(C(F)(F)F)cn1)C(Cc1ccc(Cl)cc1)c1cc(C#N)c[n+]([O-])c1 (stereo not drawn) ?
A) 29.4

Q) Then CC(NC(=O)C(C)(C)Oc1ccccn1)C(Cc1ccc(Cl)cc1)c1ccccc1 (stereo not drawn) ?
A) 2.3

Q) Then CC(NC(=O)C(C)(C)Oc1ccc(C(F)(F)F)cn1)C(Cc1ccc(Cl)cc1)c1cncc(C#N)c1 (single isomer, unassigned) ?
A) 3

* * *

What log10 EC50 was measured for each of the following?
Assayed system: recombinant human CB1 receptor expressed in CHO cells (Homo sapiens, UniProt P21554)
Sequence (P21554 whole entry): as above
Method: Cannabinoid Receptor-1 (CB1) Functional Activity (EC50) Assay
Cond: forskolin-stimulated intracellular cAMP
Each number you see is log10 of EC50, and the unit inside the log is nM.

Q) Any idea what its log10 EC50 is? The compound is CC(C)CC(c1cccc(C#N)c1)C(C)NC(=O)C(C)(C)Oc1ccc(C(F)(F)F)cn1 (single isomer, unassigned) [Example I-60]
A) 0.30

Q) Then CC(NC(=O)C(C)(C)Oc1ccc(Cl)cn1)C(Cc1ccc(Cl)cc1)c1ccsc1 (stereo not drawn) [Example I-59] ?
A) 1.15

Q) Then CC(NC(=O)C(C)(C)Oc1ccccn1)C(Cc1ccc(Cl)cc1)c1ccccc1 (stereo not drawn) [Example I-6] ?
A) 0.32

Q) Then CC(NC(=O)C(C)(C)Oc1ccc(C(F)(F)F)cn1)C(Cc1ccc(Cl)cc1)c1cc(C#N)c[n+]([O-])c1 (stereo not drawn) [Example I-64] ?
A) 1.11

Q) Then CC(NC(=O)C(C)(C)Oc1cc(C(F)(F)F)ncn1)C(Cc1ccc(Cl)cc1)c1cccc(C#N)c1 (stereo not drawn) [Example I-36] ?
A) 0.10

Q) Then CC(NC(=O)C(C)(C)Oc1ccc(C(F)(F)F)cn1)C(Cc1ccc(Cl)cc1)c1cncc(C#N)c1 (single isomer, unassigned) [Example I-39] ?
A) 0.18

Q) Then CC(C)(F)[C@H](c1cc(F)cc(C#N)c1)C1CN([C@@H](c2ccc(C#N)cc2)c2cccc(C#N)c2)C1 [II] ?
A) 0.30

Q) Then CC(NC(=O)C(C)(C)Oc1ccccn1)C(Cc1ccc(Cl)cc1)c1cc(F)cc(F)c1 (single isomer, unassigned) [Example I-25] ?
A) 0.12

Q) Then CC(NC(=O)C(C)(C)Oc1ccc(C(F)(F)F)cn1)C(CC1CCCC1)c1cccc(C#N)c1 (single isomer, unassigned) [Example I-62] ?
A) 0.30
